# protocolDescription: Mouse blood and tissue PK (LC/MS-MS)
# Format: in vivo
# experimentalConditions: BALB/c nude, mouse, tumor, po, 25 mg/kg, Capan-2 (25 mg/kg), single dose; read-out: Tumor t1/2 (converted)
# Procedure: For single-dose PKPD study, mice were randomized and assigned into groups (n = 3/dose/time point). […] Blood and tissues, including the tumor, brain, colon, ear skin, and muscle, were harvested at indicated time points. […] The whole blood, tumor, brain, colon, and ear skin concentrations of RMC-6236 were determined using liquid chromatography–tandem mass spectrometry (LC/MS-MS) methods. […] Concentrations reported as below the quantification limit were treated as zero for PK analysis. […]
measuredAttribute: half-life (h)
Numbers only here, please. The scale is h.

## Task Answer with the recorded half-life for the molecule listed here: CCn1c(-c2cc(N3CCN(C)CC3)cnc2[C@H](C)OC)c2c3cc(ccc31)-c1csc(n1)C[C@H](NC(=O)[C@H]1C[C@@H]1C)C(=O)N1CCC[C@H](N1)C(=O)OCC(C)(C)C2
## Result 14
